- Tested on: PC-3
- assay.explanation: Cytotoxicity against human PC3 cells by SRB assay
- Assay type: functional, cell-based
pIC50: −log10 of the molar value.

[
  {
    "molecule.smiles": "COc1cc2c(cc1OCCCN1CCN(CCN3C(=O)c4cccc5cccc(c45)C3=O)CC1)N=C[C@@H]1CCCN1C2=O",
    "test.target": "PC-3",
    "pIC50": 6.30
  },
  {
    "molecule.smiles": "COc1cc2c(cc1OCCCCN1CCN(CCN3C(=O)c4cccc5cccc(c45)C3=O)CC1)N=C[C@@H]1CCCN1C2=O",
    "test.target": "PC-3",
    "pIC50": 6.30
  },
  {
    "molecule.smiles": "COc1cc2c(cc1OCCN1CCN(CCN3C(=O)c4cccc5cccc(c45)C3=O)CC1)N=C[C@@H]1CCCN1C2=O",
    "test.target": "PC-3",
    "pIC50": 6.10
  }
]

###

Below, each entry is listed with its recorded ΔTm.
- Tested on: DNA
- assay.explanation: Binding affinity to calf thymus DNA assessed as helix melting temperature at 20 uM after 18 hrs by thermal denaturation assay
- Format: nucleic-acid assay
- measurement.setup: Bos taurus
endpoint.name: ΔTm (°C)

[
  {
    "molecule.smiles": "COc1cc2c(cc1OCCCN1CCN(CCN3C(=O)c4cccc5cccc(c45)C3=O)CC1)N=C[C@@H]1CCCN1C2=O",
    "test.target": "DNA",
    "endpoint.name": "ΔTm",
    "obs.value": 26.5
  },
  {
    "molecule.smiles": "COc1cc2c(cc1OCCCCN1CCN(CCN3C(=O)c4cccc5cccc(c45)C3=O)CC1)N=C[C@@H]1CCCN1C2=O",
    "test.target": "DNA",
    "endpoint.name": "ΔTm",
    "obs.value": 23.9
  },
  {
    "molecule.smiles": "COc1cc2c(cc1OCCCOc1cc3c(cc1OC)C(=O)N1CCC[C@H]1C=N3)N=C[C@@H]1CCCN1C2=O",
    "test.target": "DNA",
    "endpoint.name": "ΔTm",
    "obs.value": 15.1
  },
  {
    "molecule.smiles": "COc1cc2c(cc1OCCCCN1CCN(CCCCN3C(=O)c4cccc5cccc(c45)C3=O)CC1)N=C[C@@H]1CCCN1C2=O",
    "test.target": "DNA",
    "endpoint.name": "ΔTm",
    "obs.value": 20.8
  },
  {
    "molecule.smiles": "COc1cc2c(cc1OCCCN1CCN(CCCN3C(=O)c4cccc5cccc(c45)C3=O)CC1)N=C[C@@H]1CCCN1C2=O",
    "test.target": "DNA",
    "endpoint.name": "ΔTm",
    "obs.value": 12.9
  },
  {
    "molecule.smiles": "COc1cc2c(cc1O)N=C[C@@H]1CCCN1C2=O",
    "test.target": "DNA",
    "endpoint.name": "ΔTm",
    "obs.value": 0.7
  },
  {
    "molecule.smiles": "COc1cc2c(cc1OCCN1CCN(CCN3C(=O)c4cccc5cccc(c45)C3=O)CC1)N=C[C@@H]1CCCN1C2=O",
    "test.target": "DNA",
    "endpoint.name": "ΔTm",
    "obs.value": 22.7
  }
]
